# assay-overview: Lipophilicity, logD of the compound at pH 7.4 by RP-HPLC method based chromatographic hydrophobicity index determination
# Type: physicochemical
# experimental-context: buffer
test-readout: chromatographic logD

Here's what some known entries look like.
Cn1cc(-c2cnc3ccc(NC(=O)NC(C)(C)C)nc3c2)cn1 : 2.5
Cn1cc(-c2cnc3ccc(NC(=O)Nc4ccccc4)nc3c2)cn1 : 2.4
COc1cc(-c2cnc3ccc(NC(=O)NC(C)(C)C)nc3c2)ccc1O : 2.7
Cn1cc(-c2cnc3ccc(NC(=O)NCCc4ccccc4)nc3c2)cn1 : 2.3
Cn1cc(-c2cnc3ccc(NC(=O)NCc4ccccc4)nc3c2)cn1 : 2.2

`COc1ccc(-c2cnc3ccc(NC(=O)NC(C)(C)C)nc3c2)cc1OC` yielded chromatographic logD of 3.2

Please fill in: chromatographic logD reported for `CCNC(=O)Nc1ccc2ncc(-c3ccc(OC)c(OC)c3)cc2n1` = 2.4

Data origin: ChEMBL document CHEMBL3351448
